Hello, the source for this data is the supplement of paper PMC8728848, in case you need it.

System Tested: GlcNAc(b1-3)[GlcNAc(b1-6)]Gal(b1-4)GlcNAc
Test Name: glycan array binding signal (z-score within array); higher = stronger binding
Measurement Parameters: glycan notation: IUPAC condensed, linker removed
The sample as a whole holds a higher share of the strongest signals than the screen did.
Give glycan array binding signal (z-score) for every item shown.
One number for each entry.

The following binders have reported results that may help.
Binder	Result
SpnanA (Streptococcus pneumoniae), P62575 (protein) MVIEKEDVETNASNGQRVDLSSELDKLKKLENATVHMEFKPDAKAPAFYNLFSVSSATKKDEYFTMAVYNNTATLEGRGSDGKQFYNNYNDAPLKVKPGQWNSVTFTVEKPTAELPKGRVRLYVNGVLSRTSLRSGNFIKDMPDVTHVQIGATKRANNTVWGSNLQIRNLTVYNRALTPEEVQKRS	-0.211
CFEM-CGl (Candida glabrata), Q6FRS0 (protein) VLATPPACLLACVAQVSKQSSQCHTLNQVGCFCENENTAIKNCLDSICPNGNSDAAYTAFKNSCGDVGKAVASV	-0.258

Now take the following binder into account.
# input Name the recorded glycan array binding signal (z-score) of the item F17dG (Escherichia coli), Q47199 (protein) MTNFYKVFLAVFILVCCNISQAAVSFIGSTENDVGPSPGSYSRTHAMDNLPFVYNTGNNIGYQNANVWRISKGFCVGLDGKVDLPVVGSLDGQSIYGLTEEVGLLIWMGDTNYSRGTAMSGNSWENVFSGWCVGANTASTQGLSVRVTPVILKRNSSARYSVQKTSIGSIRMRPYNGSSAGSVQTTVNFSLNPFTLNDTVTSCRLLTPSAVNVSLAAISAGQLPSSGDEVVAGTTSLKLQCDAGVTVWATLTDATTPSNRSDILTLTGASTATGVGLRIYKNTDSTPLKFGPDSPVKGNENQWQLSTGTETSPSVRLYVKYVNTGEGINPGTVNGISTFTFSYQ in your answer.
# output 5.46
